Listing of entries alongside the reported EC50.
# Assay Target: human APJ receptor (Homo sapiens, UniProt P35414)
# Construct: expressed in transfected cells; host or cells: HEK293
# Sequence (P35414 whole entry): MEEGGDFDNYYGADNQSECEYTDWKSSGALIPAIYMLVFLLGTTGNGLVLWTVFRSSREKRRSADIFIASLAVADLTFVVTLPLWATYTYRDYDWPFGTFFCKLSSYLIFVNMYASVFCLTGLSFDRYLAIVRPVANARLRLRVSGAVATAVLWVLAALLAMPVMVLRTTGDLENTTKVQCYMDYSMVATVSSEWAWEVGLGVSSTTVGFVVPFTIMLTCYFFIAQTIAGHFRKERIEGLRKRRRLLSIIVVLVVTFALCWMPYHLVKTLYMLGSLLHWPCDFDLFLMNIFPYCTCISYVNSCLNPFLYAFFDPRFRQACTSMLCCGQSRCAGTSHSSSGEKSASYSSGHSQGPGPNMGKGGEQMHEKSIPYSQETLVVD
# Method Notes: Intracellular cAMP accumulation assay (APJ hcAMP, HTRF)
# Type: cell-based
# Particulars: HEK293 cells stably expressing human APJ receptor; inhibition of forskolin-mediated cAMP production; Table 1; read-out: hAPJ cAMP EC50 Potency range

Structure	EC50
CCCCc1nc(O)c(S(=O)(=O)c2ccc(-c3ccccc3C(N)=O)cc2)c(O)c1N(C)c1ccccc1C	0.01 to 10 nM
CCN(c1cccc(C#N)c1)c1c(-c2ccn(C)n2)nc(O)c(S(=O)(=O)c2ccc(-c3ccccc3C(=O)NC3CC3)cc2)c1O	0.01 to 10 nM
CCCCc1nc(O)c(S(=O)(=O)c2ccc(-c3ccncc3C)cc2)c(O)c1N1CCCOc2ccccc21	0.01 to 10 nM
CCCCc1nc(O)c(S(=O)(=O)c2ccc(-c3cccnc3C)cc2)c(O)c1N1CCCOc2ccccc21	10 to 100 nM
